Sourced from the supplement of paper PMC7224384

Items are presented alongside their recorded drug sensitivity score.
Test system: MDA-MB-453
Experiment: drug sensitivity score (DSS), in combination with BLU9931 (DSS (weighted AUC score)); higher = more sensitive (stronger viability decrease); extreme values may be limits of the assay
Settings: BLU9931 100 nM; 72 h
readout type: drug sensitivity score

| molecule | measured number |
| --- | --- |
| CCCCCCCCCCCCCCCCOP(=O)([O-])OCC[N+](C)(C)C [Miltefosine] | 3.9 |
| CC[C@H](C)C(=O)O[C@H]1C[C@H](O)C=C2C=C[C@H](C)[C@H](CC[C@@H](O)C[C@@H](O)CC(=O)O)[C@H]21 [Pravastatin] | 0.3 |
| CNC(=O)c1cc(Oc2ccc(NC(=O)Nc3ccc(Cl)c(C(F)(F)F)c3)cc2)ccn1 [Sorafenib] | 0 |
| Cn1cc(CNCC2CCN(c3ncc(C(=O)NO)cn3)CC2)c2ccccc21 [Quisinostat] | 21.3 |
| NC(=O)NO [Hydroxyurea] | 1.6 |
| Cc1ccc(NC(=O)c2ccc(CN3CCN(C)CC3)cc2)cc1Nc1nc(-c2cccnc2)cs1 [Masitinib] | 1.8 |
| O=C(c1ccc(OCCN2CCCCC2)cc1)c1c(-c2ccc(O)cc2)sc2cc(O)ccc12 [Raloxifene] | 2.5 |
| CC(C)C(=O)Nc1ccc([N+](=O)[O-])c(C(F)(F)F)c1 [Flutamide] | 0 |
